meta.source: the supplement of paper PMC9170038

System: MS2 coat protein
Assay: apparent KD of MS2 coat protein; designed switch direction (-1 OFF switch, 1 ON switch): -1; higher = weaker reporter binding
Conditions: Eterna round: R95; input ligand: none
PARAMETER MEASURED: apparent KD of MS2 coat protein (µM)
Expressed in µM, but write only the number.

Some sequences with known apparent KD of MS2 coat protein results, for comparison:
>>> assay_value("GCAUGGCGAGGAUAUACAUGAGGAUCACCCAUGUGAGAAUAAUAAGUGAGGAAGAAAAGUAGAAGGCGCUGUGG [Mat - Exclusion 3 - Mod of Salish D64] (puzzle: Exclusion 3)")
0.0978
>>> assay_value("GGUCGAAAACAGCUCCGCGCUGCCCUCGACCGCUCAUUUACAUGAGGAUCACCCAUGUUUUUUGCUUGUCUUGUUUC [Esrionus] (puzzle: Sensor v3, turn-off variant 2)")
0.0229
>>> assay_value("GGAUAAGGCGAGGAUAUCCAGAAACCCGACAAAGGAGAAGGCGCAACAUGAGGAUCACCCAUGUGGGUGCAUGU [Xeaormara] (puzzle: Exclusion 6)")
0.28

Name the reported apparent KD of MS2 coat protein value associated with the sequence AGUAGGUCUACCUUGGUGGAUCUGCAUUUAGGCAGGUGUACAUGAGGAUCACCCAUGUCCUCAUUUGCUCGUCUUAU [JL turnoff v2 99.29] (puzzle: Sensor v3, turn-off variant 2) 0.952

----------
Tested on: MS2 coat protein
Experiment: apparent KD of MS2 coat protein; designed switch direction (-1 OFF switch, 1 ON switch): -1; higher = weaker reporter binding
Conditions: input ligand: none
Quick reference: apparent KD of MS2 coat protein of the listed items.
Value expressed in nM; do not type the unit.

// known answers, use as guide
>>> assay_value("AGAUGCAGAGUAAGGAUAUGGUAGGCUUGCGCAAACCAGAAGGUACAUGAGGAUCACCCAUGUAAGCAUCAAGU [eternacac ex4r4 #5] (Eterna round: R97, puzzle: Brourd's mod of Exclusion 4)")
15.1
>>> assay_value("AUAUAGUGAGGAUAUCCAAUAUAUGACAUGAGGAUCACCCAUGUUUCCACUCGUACCUCCGGAGAAGGCACAUUUU [Ex5 #65] (Eterna round: R97, puzzle: Exclusion 5)")
27.6
>>> assay_value("GCCGAAAGCGUAGGAUAUUGAAUAAAGCGGAAACGCAAGACAUGAGGAUCACCCAUGUGUCCGGACGAGAAGGGCGAAAGCGGC [AK ExNG2-V2-2] (Eterna round: R96, puzzle: Exclusion NG 2)")
35.3
>>> assay_value("UACAUGAGGAUCACCCAUGUUUUGUCGUGUAUGGUAUUUAUCUAGGAUAUCAAUUGAAUUAUUUAUGAGAAGGAGAAUAUUAAU [JMF's solution 58] (Eterna round: R96, puzzle: Exclusion NG 3)")
49
>>> assay_value("UUAUAGUUAGAGGAUAUAUUAAGGUAUGCUUUGAUAGAAGGCUAGACAUGAGGAUCACCCAUGUAUAUUGGGAU [JR_Ex6_Sub075] (Eterna round: R97, puzzle: Exclusion 6)")
220
>>> assay_value("UUCACAUGGACAUGAGAUCACAUGAGGAUCACCCAUGUGAAUAACAAGCUUUUUGUUCGUCUUAUGUCCAAUAAUAU [Stov1/14-D2] (Eterna round: R97, puzzle: Sensor, turn-off variant 1)")
10.5
>>> assay_value("AAACUGAGGCAAAGCUUUAGUCGUACAUGAGGAUCACCCAUGUAGGAUAUGGUAGGCAAAGCUUACCAGAAGGACAGAGUGAUC [Mat - Exclusion NG 3 - Mod of JL - D57] (Eterna round: R96, puzzle: Exclusion NG 3)")
344
>>> assay_value("UAUUAGCAAGCGAGAUCCCACAUGAGGAUCACCCAUGUGCUCGUCUUAUAAGGUACUGUGACGAAAGUCACGGUACC [Sensor 3, v1 - 95 v5] (Eterna round: R97, puzzle: Sensor, turn-off variant 1)")
15.3
>>> assay_value("UGGACAUGAGGAUCACCCAUGUAAUACACACCUCAGCCACGAGAGGAUAUGCCCGGAGGACCGGCGCAGAAGGCUCCCAAGAGA [Eternabot solution 10] (Eterna round: R96, puzzle: Exclusion NG 3)")
48.1

For AGGUGCUUCUGGAGACAUGAGGAUCACCCAUGUCGAGUUAGCGAGGAUAUCGGUAAGGCAUGUGAUGAGAAGGCGCAAACCGAU [Ex NG3 #50] (Eterna round: R96, puzzle: Exclusion NG 3) , what is its reported apparent KD of MS2 coat protein? 24.3
